Test Target: CDK2 (Homo sapiens)
Construct: endogenous in cells; host or cells: MDA-MB-231
Test Summary: CDK protein degradation activity (Western blotting), CDK2
Format: cell-based
Measurement Parameters: MDA-MB-231 cells, 10 μM, 16 hours, Western blot
Listed below: Enzyme degradation CDK2 (% remaining) @ 10 μM values for each entry.

Please review the entries below; each comes with its answer.
>  <Compound>
Cc1cccc(C(=O)N[C@H]2C[C@@H](n3cnc4c(Nc5ccc(N6CCN(CC7CCN(c8ccc9c(c8)C(=O)N([C@H]8CCC(=O)NC8=O)C9=O)CC7)CC6)cc5)ncnc43)C2)n1 [Compound 88]

>  <Readout Value>
20/20/20%

$$$$
>  <Compound>
O=C1CC[C@H](N2C(=O)c3cccc(CCCN4CCC(CN5CCN(c6ccc(Nc7ncnc8c7ncn8C7CC(NC(=O)c8cccc(F)n8)C7)cc6)CC5)CC4)c3C2=O)C(=O)N1 (stereo partly shown) [Compound 431]

>  <Readout Value>
30/30/30%

$$$$
>  <Compound>
O=C1CC[C@H](N2C(=O)c3cccc(NC[C@H]4CC[C@H](CN5CCN(c6ccc(Nc7ncnc8c7ncn8[C@H]7C[C@@H](NC(=O)Cc8ccccc8)C7)cc6)CC5)CC4)c3C2=O)C(=O)N1 [Compound 222]

>  <Readout Value>
100/100/100%

$$$$

Now consider a different compound.
Result for O=C1CC[C@H](N2C(=O)c3ccc(N4CCC5(CC4)CC(N4CCN(c6ccc(Nc7ncnc8c7ncn8[C@H]7C[C@@H](NC(=O)Cc8ccccc8)C7)cc6)CC4)C5)cc3C2=O)C(=O)N1 [Compound 210] , tested on CDK2 (Homo sapiens), Enzyme degradation CDK2 (% remaining) @ 10 μM: 30/30/30%

###

Test Target: CDK2 (Homo sapiens, UniProt P24941)
Construct: endogenous in cells; host or cells: MDA-MB-231
Test Summary: CDK protein degradation activity (Western blotting), CDK2
Type: cell-based
Measurement Parameters: MDA-MB-231 cells, 10 μM, 16 hours, Western blot
Attribute Measured: Enzyme degradation CDK2 (% remaining) @ 10 μM

Please review the entries below; each comes with its answer.
>  <Compound>
Cc1cccc(C(=O)NC2CC(n3cnc4c(Nc5ccc(N6CCN(CC7CCN(C(=O)C8CCN(c9cc%10c(cc9F)C(=O)N([C@H]9CCC(=O)NC9=O)C%10=O)CC8)CC7)CC6)cc5C)ncnc43)C2)n1 (stereo partly drawn) [Compound 477]

>  <Test Target>
CDK2 (Homo sapiens, UniProt P24941)

>  <Readout Value>
20/20/20%

$$$$
>  <Compound>
Cc1cccc(C(=O)NC2CC(n3cnc4c(NCC5CCN(CC6CCN(c7ccc8c(c7)C(=O)N([C@@H]7CCC(=O)NC7=O)C8=O)CC6)CC5)ncnc43)C2)n1 (stereo partly drawn) [Compound 76]

>  <Test Target>
CDK2 (Homo sapiens, UniProt P24941)

>  <Readout Value>
100/100/100%

$$$$

Now consider a different compound.
Result for O=C1CC[C@H](N2C(=O)c3ccc(NCC(=O)N4CCC(CCCN5CCN(c6ccc(Nc7ncnc8c7ncn8[C@H]7C[C@@H](NC(=O)Cc8ccccc8)C7)cc6)CC5)CC4)cc3C2=O)C(=O)N1 (racemic) [Compound 255] , tested on CDK2 (Homo sapiens, UniProt P24941), Enzyme degradation CDK2 (% remaining) @ 10 μM: 30/30/30%

###

Test Target: CDK9 (Homo sapiens, UniProt P50750)
Construct: endogenous in cells; host or cells: MDA-MB-231
Sequence (P50750 whole entry): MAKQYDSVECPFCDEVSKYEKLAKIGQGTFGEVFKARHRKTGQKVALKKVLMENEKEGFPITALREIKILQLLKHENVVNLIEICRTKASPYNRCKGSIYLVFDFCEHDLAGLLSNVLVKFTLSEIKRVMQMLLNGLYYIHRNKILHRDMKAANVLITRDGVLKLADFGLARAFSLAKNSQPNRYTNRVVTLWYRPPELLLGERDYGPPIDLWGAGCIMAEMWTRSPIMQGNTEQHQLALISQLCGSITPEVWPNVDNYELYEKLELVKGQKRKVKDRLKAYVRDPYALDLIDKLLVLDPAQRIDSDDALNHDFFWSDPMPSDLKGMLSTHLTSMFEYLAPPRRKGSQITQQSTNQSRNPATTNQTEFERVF
Test Summary: CDK protein degradation activity (Western blotting), CDK9
Assay type: cell-based
Measurement Parameters: MDA-MB-231 cells, 0.1 μM, 16 hours, Western blot
Listed below: Enzyme degradation CDK9 (% remaining) @ 0.1 μM values for each entry.

Please review the entries below; each comes with its answer.
>  <Compound>
Cc1cccc(C(=O)N[C@H]2C[C@@H](n3cnc4c(Nc5ccc(N6CCN(CCC7CCN(C(=O)COc8ccc([C@@H]9CCC(=O)NC9=O)cc8)CC7)CC6)cc5)ncnc43)C2)n1 [Compound 444]

>  <Readout Value>
0/0/0%

$$$$
>  <Compound>
O=C1CCC(N2C(=O)c3cc(F)c(N4CCC5(CC4)CC(N4CCN(c6ccc(Nc7ncnc8c7ncn8[C@H]7C[C@@H](NC(=O)c8c(Cl)cccc8Cl)C7)cc6)CC4)C5)cc3C2=O)C(=O)N1 (stereo partly drawn) [Compound 316]

>  <Readout Value>
0/0/0%

$$$$

Now consider a different compound.
So for O=C1CC[C@H](N2C(=O)c3ccc(N4CC(C(=O)N5CCC(CN6CCN(c7ccc(Nc8ncnc9c8ncn9[C@H]8C[C@@H](NC(=O)c9c(Cl)cccc9Cl)C8)cc7)CC6)CC5)C4)cc3C2=O)C(=O)N1 [Compound 394] , the logged Enzyme degradation CDK9 (% remaining) @ 0.1 μM turned out to be 0/0/0%

###

Test Target: CDK9 (Homo sapiens, UniProt P50750)
Construct: endogenous in cells; host or cells: MDA-MB-231
Test Summary: CDK protein degradation activity (Western blotting), CDK9
Assay type: cell-based
Measurement Parameters: MDA-MB-231 cells, 1 μM, 16 hours, Western blot
Attribute Measured: Enzyme degradation CDK9 (% remaining) @ 1 μM (%)

Please review the entries below; each comes with its answer.
>  <Molecule>
O=C1CC[C@H](N2C(=O)c3cccc(N4CCC5(CC4)CC(N4CCN(c6ccc(Nc7ncnc8c7ncn8[C@H]7C[C@@H](NC(=O)Cc8ccccc8)C7)cc6)CC4)C5)c3C2=O)C(=O)N1

>  <Test Target>
CDK9 (Homo sapiens, UniProt P50750)

>  <Readout Value>
20

$$$$
>  <Molecule>
Cc1cccc(C(=O)N[C@H]2C[C@@H](n3cnc4c(NCc5cccc(OCCCN6CCN(C(=O)CNc7cccc8c7C(=O)N([C@H]7CCC(=O)NC7=O)C8=O)CC6)c5)ncnc43)C2)n1

>  <Test Target>
CDK9 (Homo sapiens, UniProt P50750)

>  <Readout Value>
10

$$$$

I. O=C1CC[C@H](N2C(=O)c3ccc(N4CCC(C(=O)N5CCN(C6CCN(c7ccc(Nc8ncnc9c8ncn9C8CC(NC(=O)Cc9ccccc9)C8)cc7)CC6)CC5)CC4)cc3C2=O)C(=O)N1 (stereo partly drawn)
II. O=C1CC[C@@H](c2ccc(OCC(=O)N3CCC(CC(=O)N4CCN(c5ccc(Nc6ncnc7c6ncn7C6CC(NC(=O)Cc7ccccc7)C6)cc5)CC4)CC3)cc2)C(=O)N1 (stereo partly drawn)
III. Cc1cccc(C(=O)NC2CC(n3cnc4c(NCc5ccc(OCC6CCN(c7ccc8c(c7)C(=O)N([C@H]7CCC(=O)NC7=O)C8=O)CC6)cc5)ncnc43)C2)n1 (stereo partly drawn)
List items by Enzyme degradation CDK9 (% remaining) @ 1 μM in falling order. Note for the reader: the ranking is given by listing the labels in the order requested.
III, I, II
(III: 20%, I: 10%, II: 0%)

###

Test Target: CDK9 (Homo sapiens, UniProt P50750)
Construct: endogenous in cells; host or cells: MDA-MB-231
Test Summary: CDK protein degradation activity (Western blotting), CDK9
Type: cell-based
Measurement Parameters: MDA-MB-231 cells, 1 μM, 16 hours, Western blot
Listed below: Enzyme degradation CDK9 (% remaining) @ 1 μM values for each entry.

>  <Compound>
Cc1cccc(C(=O)N[C@H]2C[C@@H](n3cnc4c(Nc5ccc(N6CCN(CC7CCN(c8cc9c(cc8F)C(=O)N([C@H]8CCC(=O)NC8=O)C9=O)CC7)CC6)cc5)ncnc43)C2)n1 [Compound 377]

>  <Test Target>
CDK9 (Homo sapiens, UniProt P50750)

>  <Readout Value>
0/0/0%

$$$$
>  <Compound>
O=C1CC[C@H](N2C(=O)c3ccc(N4CC(C(=O)N5CCC6(CC5)CC(N5CCN(c7ccc(Nc8ncnc9c8ncn9[C@H]8C[C@@H](NC(=O)Cc9ccccc9)C8)cc7)CC5)C6)C4)cc3C2=O)C(=O)N1 [Compound 352]

>  <Test Target>
CDK9 (Homo sapiens, UniProt P50750)

>  <Readout Value>
20/20/20%

$$$$
>  <Compound>
Cc1cccc(C(=O)NC2CC(n3cnc4c(Nc5ccc(N6CCN(CC7CCN(C(=O)C8CCN(c9ccc%10c(c9)C(=O)N([C@H]9CCC(=O)NC9=O)C%10=O)CC8)CC7)CC6)cc5)ncnc43)C2)n1 (stereo partly shown) [Compound 379]

>  <Test Target>
CDK9 (Homo sapiens, UniProt P50750)

>  <Readout Value>
0/0/0%

$$$$
>  <Compound>
O=C1CC[C@H](N2C(=O)c3cccc(CCCN4CCC(CN5CCN(c6ccc(Nc7ncnc8c7ncn8C7CC(NC(=O)c8cccc(F)n8)C7)cc6)CC5)CC4)c3C2=O)C(=O)N1 (stereo partly shown) [Compound 431]

>  <Test Target>
CDK9 (Homo sapiens, UniProt P50750)

>  <Readout Value>
0/0/0%

$$$$
>  <Compound>
Cc1cccc(C(=O)N[C@H]2C[C@@H](n3cnc4c(Nc5ccc(N6CCN(C7CC8(CCN(c9cc%10c(cc9F)C(=O)N([C@H]9CCC(=O)NC9=O)C%10=O)CC8)C7)CC6)cc5)ncnc43)C2)n1 [Compound 385]

>  <Test Target>
CDK9 (Homo sapiens, UniProt P50750)

>  <Readout Value>
0/0/0%

$$$$
>  <Compound>
O=C1CC[C@H](N2C(=O)c3cccc(N4CCC(CN5CCN(c6ccc(Nc7ncnc8c7ncn8[C@H]7C[C@@H](NC(=O)c8c(Cl)cccc8Cl)C7)cc6)CC5)CC4)c3C2=O)C(=O)N1 [Compound 167]

>  <Test Target>
CDK9 (Homo sapiens, UniProt P50750)

>  <Readout Value>
0/0/0%

$$$$

So for O=C1CC[C@H](N2C(=O)c3ccc(N4CCC(C(=O)N5CCC(CCN6CCN(c7ccc(Nc8ncnc9c8ncn9C8CC(NC(=O)c9c(Cl)cccc9Cl)C8)cc7)CC6)CC5)CC4)cc3C2=O)C(=O)N1 (stereo partly shown) [Compound 413] , the logged Enzyme degradation CDK9 (% remaining) @ 1 μM turned out to be 10/10/10%

So for O=C1CC[C@H](N2C(=O)c3cccc(OCC(=O)N4CCC(CN5CCC(CNc6ncnc7c6ncn7C6CC(NC(=O)Cc7ccccc7)C6)CC5)CC4)c3C2=O)C(=O)N1 (stereo partly shown) [Compound 182] , the logged Enzyme degradation CDK9 (% remaining) @ 1 μM turned out to be 10%
